# IC50 (µg/mL), pseudovirus neutralization annotations
Target: HIV-1 92BR020 Env (pseudovirus) (HIV-1 isolate 92BR020)
Assay: cell-based or functional assay

Below, 4 binders whose answers are already recorded.
binder	measurement_name	reported_result
1443_C16 (PG16) (TCN-116) (antibody, V domains shown) VH: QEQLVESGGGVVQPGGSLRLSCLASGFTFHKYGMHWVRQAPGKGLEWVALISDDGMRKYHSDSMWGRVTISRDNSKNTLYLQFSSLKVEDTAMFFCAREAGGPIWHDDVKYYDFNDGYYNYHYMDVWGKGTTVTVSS VL: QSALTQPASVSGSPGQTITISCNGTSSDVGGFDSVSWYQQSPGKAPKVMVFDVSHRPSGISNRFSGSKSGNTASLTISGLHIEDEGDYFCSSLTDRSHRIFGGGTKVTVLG	IC50 (µg/mL), pseudovirus neutralization	> 50 µg/mL
1496_C09 (PG9) (TCN-109) (antibody, V domains shown) VH: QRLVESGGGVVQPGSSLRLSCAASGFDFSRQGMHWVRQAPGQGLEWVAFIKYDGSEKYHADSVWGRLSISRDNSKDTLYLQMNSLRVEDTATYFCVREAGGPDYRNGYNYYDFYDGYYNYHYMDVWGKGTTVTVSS VL: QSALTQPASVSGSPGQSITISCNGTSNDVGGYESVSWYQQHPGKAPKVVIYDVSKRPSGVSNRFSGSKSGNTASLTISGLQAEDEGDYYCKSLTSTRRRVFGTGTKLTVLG	IC50 (µg/mL), pseudovirus neutralization	> 50 µg/mL
1460_G14 (PGG14) (antibody, human IgG1, kappa, V domains shown) VH: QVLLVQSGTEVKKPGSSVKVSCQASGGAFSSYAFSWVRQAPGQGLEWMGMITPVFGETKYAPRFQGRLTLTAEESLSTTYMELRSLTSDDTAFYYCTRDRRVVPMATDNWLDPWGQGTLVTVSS VL: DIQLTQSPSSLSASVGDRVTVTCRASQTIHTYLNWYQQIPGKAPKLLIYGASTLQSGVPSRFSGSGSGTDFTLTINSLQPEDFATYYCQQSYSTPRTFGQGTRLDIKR	IC50 (µg/mL), pseudovirus neutralization	> 50 µg/mL
1495_C14 (PGC14) (antibody, human IgG1, lambda, V domains shown) VH: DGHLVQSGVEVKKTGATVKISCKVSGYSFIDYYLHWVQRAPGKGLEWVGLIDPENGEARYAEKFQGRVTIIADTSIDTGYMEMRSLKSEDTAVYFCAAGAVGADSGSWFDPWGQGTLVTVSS VL: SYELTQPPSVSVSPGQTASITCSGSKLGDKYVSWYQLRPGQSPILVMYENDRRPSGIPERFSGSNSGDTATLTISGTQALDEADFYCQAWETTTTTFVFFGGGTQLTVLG	IC50 (µg/mL), pseudovirus neutralization	0.64 µg/mL

In the following, a different binder is considered.
Ask: Given 1456_P20 (PG20) (antibody, human IgG1, kappa, V domains shown) VH: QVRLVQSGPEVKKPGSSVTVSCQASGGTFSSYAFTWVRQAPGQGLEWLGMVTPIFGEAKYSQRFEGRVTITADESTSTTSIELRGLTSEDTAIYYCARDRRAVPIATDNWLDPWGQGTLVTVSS VL: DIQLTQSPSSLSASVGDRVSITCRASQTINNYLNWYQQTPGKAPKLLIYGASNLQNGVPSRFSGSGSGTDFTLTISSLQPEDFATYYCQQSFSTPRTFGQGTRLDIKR , state its recorded IC50 (µg/mL), pseudovirus neutralization.
Result: > 50 µg/mL
